Every entry's value here was drawn from ChEMBL document CHEMBL3352151.

Method description: Cytotoxicity against human HaCaT cells assessed as cell viability at 500 ug/ml after 18 hrs by MTT assay
Type: cell-based
Run conditions: read-out: Activity
Square brackets hold non-standard residues; d marks the D form. Peptide text beside a SMILES is read from it. * marks the point of attachment. Stearoyl = CCCCCCCCCCCCCCCCCC(=O)*; Palmitoyl = CCCCCCCCCCCCCCCC(=O)*; Myristoyl = CCCCCCCCCCCCCC(=O)*; Orn = NCCC[CH](N)C(=O)O
Exercise: state measured viability at 18 h, 500 ug/ml for each of the compounds provided.

# Compound, Observable, Endpoint value
measured = [
    ("CCCCCCCCCCCCCC(=O)NC(CCCN)C(=O)NC(CCCN)C(=O)NC(CCCN)C(=O)NC(CCCN)C(=O)NC(CCCN)C(N)=O (stereo not drawn) (Myristoyl-[Orn][Orn][Orn][Orn][Orn]-NH2; configuration not given here)", "viability at 18 h, 500 ug/ml", "> 80%"),
]

Please look at the items below and tell me viability at 18 h, 500 ug/ml for each one, in order.
1. CCCCCCCCCCCCCCCC(=O)NC(CCCN)C(=O)NC(CCCN)C(=O)NC(CCCN)C(=O)NC(CCCN)C(N)=O (stereo not drawn) (Palmitoyl-[Orn][Orn][Orn][Orn]-NH2; configuration not given here)
2. CCCCCCCCCCCCCCCCCC(=O)NC(CCCN)C(=O)NC(CCCN)C(=O)NC(CCCN)C(=O)NC(CCCN)C(N)=O (stereo not drawn) (Stearoyl-[Orn][Orn][Orn][Orn]-NH2; configuration not given here)

["> 80%", "67%"]

----------
Tested on: Acinetobacter baumannii
Method description: Antibacterial activity against clinical isolates of Acinetobacter baumannii GMCH/B0083 after overnight incubation by microdilution broth assay
Format: functional
Square brackets hold non-standard residues; d marks the D form. Peptide text beside a SMILES is read from it. * marks the point of attachment. Stearoyl = CCCCCCCCCCCCCCCCCC(=O)*; Palmitoyl = CCCCCCCCCCCCCCCC(=O)*; Myristoyl = CCCCCCCCCCCCCC(=O)*; Orn = NCCC[CH](N)C(=O)O
Observable: MIC (µg/mL)
Numbers only, in µg/mL.

Guide cases for MIC, answers given:
# Compound, Readout unit, MIC
measured = [
    ("CCCCCCCCCCCCCCCC(=O)NC(CCCN)C(=O)NC(CCCN)C(=O)NC(CCCN)C(=O)NC(CCCN)C(=O)NC(CCCN)C(N)=O (centres undefined) (Palmitoyl-[Orn][Orn][Orn][Orn][Orn]-NH2; configuration not given here)", "µg/mL", 12.5),
    ("CCCCCCCCCCCCCC(=O)NC(CCCN)C(=O)NC(CCCN)C(=O)NC(CCCN)C(=O)NC(CCCN)C(N)=O (centres undefined) (Myristoyl-[Orn][Orn][Orn][Orn]-NH2; configuration not given here)", "µg/mL", 5),
    ("CCCCCCCCCCCCCCCCCC(=O)NC(CCCN)C(=O)NC(CCCN)C(=O)NC(CCCN)C(=O)NC(CCCN)C(=O)NC(CCCN)C(N)=O (centres undefined) (Stearoyl-[Orn][Orn][Orn][Orn][Orn]-NH2; configuration not given here)", "µg/mL", 10),
    ("CCCCCCCCCCCCCC(=O)NC(CCCN)C(=O)NC(CCCN)C(=O)NC(CCCN)C(=O)NC(CCCN)C(=O)NC(CCCN)C(N)=O (centres undefined) (Myristoyl-[Orn][Orn][Orn][Orn][Orn]-NH2; configuration not given here)", "µg/mL", 8.25),
]

I need MIC for every entry listed below, if you could help.
1. CCCCCCCCCCCCCCCC(=O)NC(CCCN)C(=O)NC(CCCN)C(=O)NC(CCCN)C(=O)NC(CCCN)C(N)=O (centres undefined) (Palmitoyl-[Orn][Orn][Orn][Orn]-NH2; configuration not given here)
2. CCCCCCCCCCCCCCCCCC(=O)NC(CCCN)C(=O)NC(CCCN)C(=O)NC(CCCN)C(N)=O (centres undefined)
3. CCCCCCCCCCCCCCCCCC(=O)NC(CCCN)C(=O)NC(CCCN)C(=O)NC(CCCN)C(=O)NC(CCCN)C(N)=O (centres undefined) (Stearoyl-[Orn][Orn][Orn][Orn]-NH2; configuration not given here)

6.5
6.5
10

# return MIC for each item in the list
1. CCCCCCCCCCCCCC(=O)NC(CCCN)C(=O)NC(CCCN)C(=O)NC(CCCN)C(N)=O (centres undefined)
2. CCCCCCCCCCCCCCCC(=O)NC(CCCN)C(=O)NC(CCCN)C(=O)NC(CCCN)C(N)=O (centres undefined)

2.5
4
